Entry source: paper PMC12136037

The entries below come with measured dTm values attached.
- assayed_target: ~100 representative kinases (Homo sapiens, UniProt O95747)
- Construct: Recombinant protein kinase domains with a concentration of 2 μM
- Sequence (O95747 whole entry, the tested form may be a part): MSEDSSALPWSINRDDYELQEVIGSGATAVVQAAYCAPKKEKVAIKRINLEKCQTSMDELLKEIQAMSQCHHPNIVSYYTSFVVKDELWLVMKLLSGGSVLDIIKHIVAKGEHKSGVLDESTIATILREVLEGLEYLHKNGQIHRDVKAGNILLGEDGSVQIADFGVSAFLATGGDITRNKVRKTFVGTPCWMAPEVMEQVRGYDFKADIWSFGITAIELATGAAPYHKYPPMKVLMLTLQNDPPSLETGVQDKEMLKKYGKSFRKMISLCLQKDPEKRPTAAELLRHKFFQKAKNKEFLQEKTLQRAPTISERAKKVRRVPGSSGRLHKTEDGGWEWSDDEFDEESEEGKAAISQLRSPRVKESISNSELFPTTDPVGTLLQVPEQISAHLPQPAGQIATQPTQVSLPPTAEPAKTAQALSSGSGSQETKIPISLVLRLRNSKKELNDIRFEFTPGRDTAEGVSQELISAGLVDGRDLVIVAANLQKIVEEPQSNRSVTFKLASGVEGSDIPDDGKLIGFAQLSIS
- test_description: DSF 100 kinase selectivity screen;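 further: compound tested at 20 µM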
- Type: binding
- protocol_conditions: protein OSR1; average of three replicates

[
  {
    "molecule": "COc1cc2c(Oc3ccc(NC(=O)C4(C(=O)Nc5ccc(F)cc5)CC4)cc3F)ccnc2cc1OCCCN1CCOCC1 [Foretinib, reference compound]",
    "dTm": "-0.48 K"
  },
  {
    "molecule": "O=C(Nc1cccc(-c2c[nH]c3ncnc(N4CCOCC4)c23)c1)C1(C(=O)Nc2cc(Br)c(F)cc2F)CC1 [Compound 25]",
    "dTm": "0.13 K"
  },
  {
    "molecule": "COc1ccc(NC(=O)C2(C(=O)Nc3cccc(-c4c[nH]c5ncnc(N6CCOCC6)c45)c3)CC2)cc1 [Compound 16]",
    "dTm": "0.35 K"
  },
  {
    "molecule": "O=C(Nc1cccc(-c2c[nH]c3ncnc(N4CCOCC4)c23)c1)C1(C(=O)Nc2ccc(F)c(F)c2)CC1 [Compound 17]",
    "dTm": "2.20 K"
  },
  {
    "molecule": "O=C(Nc1ccccc1)C1(C(=O)Nc2cccc(-c3c[nH]c4ncnc(N5CCOCC5)c34)c2)CC1 [Compound 12]",
    "dTm": "1.28 K"
  },
  {
    "molecule": "COc1cc(S(C)(=O)=O)ccc1Nc1nc(N(C)C)c2c(Cl)c[nH]c2n1 [Compound 37]",
    "dTm": "1.40 K"
  },
  {
    "molecule": "Cn1cc(-c2c[nH]c3ncnc(N4CCOCC4)c23)cc1C#N [PFE-360]",
    "dTm": "-0.14 K"
  },
  {
    "molecule": "O=C(Nc1cccc(-c2c[nH]c3ncnc(N4CCOCC4)c23)c1)C1(C(=O)Nc2ccc(F)c(Cl)c2)CC1 [Compound 18]",
    "dTm": "0.31 K"
  },
  {
    "molecule": "CC(C)(C)c1cccc(NC(=O)C2(C(=O)Nc3cccc(-c4c[nH]c5ncnc(N6CCOCC6)c45)c3)CC2)c1 [Compound 22]",
    "dTm": "4.04 K"
  },
  {
    "molecule": "Cc1ccc(C(=O)Nc2ccc(CN3CCN(C)CC3)c(C(F)(F)F)c2)cc1C#Cc1c[nH]c2ncnc(N3CCOCC3)c12 [Compound 1]",
    "dTm": "1.78 K"
  },
  {
    "molecule": "O=C(Nc1cccc(-c2c[nH]c3ncnc(N4CCOCC4)c23)c1)C1(C(=O)Nc2ccc(F)cc2F)CC1 [Compound 23]",
    "dTm": "1.41 K"
  },
  {
    "molecule": "O=C(Nc1cccc(-c2c[nH]c3ncnc(N4CCOCC4)c23)c1)c1cccn(-c2ccc(F)cc2)c1=O [Compound 4]",
    "dTm": "1.98 K"
  },
  {
    "molecule": "Cc1ccc(-n2nc(C(C)(C)C)cc2NC(=O)Nc2cccc(-c3c[nH]c4ncnc(N5CCOCC5)c34)c2)cc1 [Compound 29]",
    "dTm": "0.52 K"
  },
  {
    "molecule": "O=C(Nc1ccc(Cl)cc1)C1(C(=O)Nc2cccc(-c3c[nH]c4ncnc(N5CCOCC5)c34)c2)CC1 [Compound 13]",
    "dTm": "2.33 K"
  },
  {
    "molecule": "CCSc1nc(NC)c2c(-c3cccc(NC(=O)Nc4cc(C(C)(C)C)nn4-c4ccc(C)cc4)c3)c[nH]c2n1 [Compound 32]",
    "dTm": "-0.46 K"
  }
]

* * *

- assayed_target: ~100 representative kinases (Homo sapiens, UniProt P45984)
- Construct: Recombinant protein kinase domains with a concentration of 2 μM
- Sequence (P45984 whole entry, the tested form may be a part): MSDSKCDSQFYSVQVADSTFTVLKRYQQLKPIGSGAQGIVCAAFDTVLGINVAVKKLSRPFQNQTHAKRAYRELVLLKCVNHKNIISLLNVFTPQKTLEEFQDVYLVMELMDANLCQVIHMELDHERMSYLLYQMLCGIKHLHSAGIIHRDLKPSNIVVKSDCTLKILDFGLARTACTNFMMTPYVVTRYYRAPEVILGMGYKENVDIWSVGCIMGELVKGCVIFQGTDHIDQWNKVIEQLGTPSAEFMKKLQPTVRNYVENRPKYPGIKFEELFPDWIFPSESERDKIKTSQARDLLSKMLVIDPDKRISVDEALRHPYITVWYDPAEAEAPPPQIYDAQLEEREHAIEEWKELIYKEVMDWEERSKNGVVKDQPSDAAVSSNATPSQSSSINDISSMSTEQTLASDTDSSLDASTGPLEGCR
- test_description: DSF 100 kinase selectivity screen;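 further: compound tested at 20 µM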
- Format: binding
- protocol_conditions: protein MAPK9; average of three replicates
measured_property: dTm (K)

[
  {
    "compound": "Cc1ccc(-n2nc(C(C)(C)C)cc2NC(=O)Nc2cccc(-c3c[nH]c4nc(Cl)nc(N5CCOCC5)c34)c2)cc1 [Compound 30]",
    "assayed_target": "~100 representative kinases (Homo sapiens, UniProt P45984)",
    "measured_property": "dTm",
    "test_value": 3.39
  },
  {
    "compound": "O=C(Nc1cccc(-c2c[nH]c3ncnc(N4CCOCC4)c23)c1)C1(C(=O)Nc2ccc(F)c(Cl)c2)CC1 [Compound 18]",
    "assayed_target": "~100 representative kinases (Homo sapiens, UniProt P45984)",
    "measured_property": "dTm",
    "test_value": 5.44
  },
  {
    "compound": "O=C(Nc1cccc(-c2c[nH]c3ncnc(N4CCOCC4)c23)c1)C1(C(=O)Nc2ccc(F)cc2F)CC1 [Compound 23]",
    "assayed_target": "~100 representative kinases (Homo sapiens, UniProt P45984)",
    "measured_property": "dTm",
    "test_value": 2.02
  },
  {
    "compound": "Cc1ccc(C(=O)Nc2ccc(CN3CCN(C)CC3)c(C(F)(F)F)c2)cc1C#Cc1cnc2[nH]ncc2c1 [GZD-824, reference compound]",
    "assayed_target": "~100 representative kinases (Homo sapiens, UniProt P45984)",
    "measured_property": "dTm",
    "test_value": 4.93
  },
  {
    "compound": "O=C(Nc1ccc(Cl)cc1)C1(C(=O)Nc2cccc(-c3c[nH]c4ncnc(N5CCOCC5)c34)c2)CC1 [Compound 13]",
    "assayed_target": "~100 representative kinases (Homo sapiens, UniProt P45984)",
    "measured_property": "dTm",
    "test_value": 3.96
  },
  {
    "compound": "O=C(Nc1cccc(-c2c[nH]c3ncnc(N4CCOCC4)c23)c1)C1(C(=O)Nc2ccc(F)c(Br)c2F)CC1 [Compound 26]",
    "assayed_target": "~100 representative kinases (Homo sapiens, UniProt P45984)",
    "measured_property": "dTm",
    "test_value": 4.90
  },
  {
    "compound": "Cc1ccc(NC(=O)C2(C(=O)Nc3cccc(-c4c[nH]c5ncnc(N6CCOCC6)c45)c3)CC2)cc1 [Compound 14]",
    "assayed_target": "~100 representative kinases (Homo sapiens, UniProt P45984)",
    "measured_property": "dTm",
    "test_value": 2.56
  }
]

* * *

- assayed_target: ~100 representative kinases (Homo sapiens)
- Construct: Recombinant protein kinase domains with a concentration of 2 μM
- test_description: DSF 100 kinase selectivity screen;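 further: compound tested at 20 µM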
- Assay type: binding
- protocol_conditions: protein MELK; average of three replicates

[
  {
    "cpd_smiles": "O=C(Nc1cccc(-c2c[nH]c3ncnc(N4CCOCC4)c23)c1)C1(C(=O)Nc2cccc3c2CCC3)CC1",
    "dTm (K)": 10.76
  },
  {
    "cpd_smiles": "COc1cc(S(C)(=O)=O)ccc1Nc1nc(N(C)C)c2c(Cl)c[nH]c2n1",
    "dTm (K)": 0.45
  },
  {
    "cpd_smiles": "CC(C)(C)c1cc(NC(=O)Nc2cccc(-c3c[nH]c4ncnc(N5CCOCC5)c34)c2)n(-c2ccc3ncccc3c2)n1",
    "dTm (K)": 2.71
  }
]

* * *

- assayed_target: ~100 representative kinases (Homo sapiens, UniProt Q86V86)
- Construct: Recombinant protein kinase domains with a concentration of 2 μM
- test_description: DSF 100 kinase selectivity screen;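 further: compound tested at 20 µM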
- Assay type: binding
- protocol_conditions: protein PIM3; average of three replicates

[
  {
    "compound": "O=C(Nc1cccc(-c2c[nH]c3ncnc(N4CCOCC4)c23)c1)C1(C(=O)Nc2cccc3c2CCC3)CC1",
    "unit": "K",
    "dTm": 0.61
  },
  {
    "compound": "CNC(=O)c1cc(Oc2ccc(NC(=O)Nc3cc(C(C)(C)C)nn3-c3ccc4ncccc4c3)c(F)c2)ccn1 [Rebastinib, reference compound]",
    "unit": "K",
    "dTm": 6.29
  },
  {
    "compound": "O=C(Nc1ccc(F)cc1)C1(C(=O)Nc2cccc(-c3c[nH]c4ncnc(N5CCOCC5)c34)c2)CC1",
    "unit": "K",
    "dTm": -0.94
  },
  {
    "compound": "O=C(Nc1ccccc1)C1(C(=O)Nc2cccc(-c3c[nH]c4ncnc(N5CCOCC5)c34)c2)CC1",
    "unit": "K",
    "dTm": 0.88
  },
  {
    "compound": "CCSc1nc(NC)c2c(-c3cccc(NC(=O)Nc4cc(C(C)(C)C)nn4-c4ccc(C)cc4)c3)c[nH]c2n1",
    "unit": "K",
    "dTm": 2.14
  },
  {
    "compound": "Cc1ccc(C(=O)Nc2ccc(CN3CCN(C)CC3)c(C(F)(F)F)c2)cc1C#Cc1cnc2[nH]ncc2c1 [GZD-824, reference compound]",
    "unit": "K",
    "dTm": 0.45
  },
  {
    "compound": "O=C(Nc1cccc(-c2c[nH]c3ncnc(N4CCOCC4)c23)c1)C1(C(=O)Nc2ccc(F)c(Cl)c2)CC1",
    "unit": "K",
    "dTm": 1.00
  },
  {
    "compound": "Cc1cc(NC(=O)C2(C(=O)Nc3ccc(F)cc3)CC2)cc(-c2c[nH]c3ncnc(N4CCOCC4)c23)c1",
    "unit": "K",
    "dTm": 1.05
  },
  {
    "compound": "CC(=O)N1CCN(c2nc(Cl)nc3[nH]cc(-c4cccc(NC(=O)Nc5cc(C(C)(C)C)nn5-c5ccc(C)cc5)c4)c23)CC1",
    "unit": "K",
    "dTm": 0.67
  },
  {
    "compound": "O=C(Nc1cccc(-c2c[nH]c3ncnc(N4CCOCC4)c23)c1)C1(C(=O)Nc2cc(Br)c(F)cc2F)CC1",
    "unit": "K",
    "dTm": -0.17
  },
  {
    "compound": "O=C(Nc1cccc(-c2c[nH]c3ncnc(N4CCOCC4)c23)c1)C1(C(=O)Nc2ccc(F)c(Br)c2F)CC1",
    "unit": "K",
    "dTm": 0.88
  },
  {
    "compound": "Cc1cc(F)ccc1NC(=O)C1(C(=O)Nc2cccc(-c3c[nH]c4ncnc(N5CCOCC5)c34)c2)CC1",
    "unit": "K",
    "dTm": 0.00331
  },
  {
    "compound": "CC(C)(C)c1cc(NC(=O)Nc2cccc(-c3c[nH]c4ncnc(N5CCOCC5)c34)c2)n(-c2ccc3ncccc3c2)n1",
    "unit": "K",
    "dTm": 4.96
  },
  {
    "compound": "O=C(Nc1cccc(-c2c[nH]c3ncnc(N4CCOCC4)c23)c1)C1(C(=O)Nc2ccc(F)c(F)c2)CC1",
    "unit": "K",
    "dTm": 1.09
  }
]
